In this section we review reported pEC50 values for a set of compounds.
Tested on: SARS-CoV-2 (strain USA-WA1/2020)
test details: microbe, parasite or virus in culture
Assay type: cell-based
condition set: Severe acute respiratory syndrome coronavirus 2; Table 2; SARS-CoV-2 infected HeLa-ACE2 cells; read-out: CoV-2 HeLa EC50
pEC50: −log10 of the molar value.
measured endpoint: pEC50

{"compound": "O=C(c1cncc([N+](=O)[O-])c1)N1CCN(C2c3ccccc3CCc3ccccc32)CC1 [ZS-339]", "measured endpoint": "pEC50", "observed result": 5.39}
{"compound": "O=C(c1cncc2nc[nH]c12)N1CCC(=C2c3ccccc3CS(=O)(=O)c3ccccc32)CC1 [NZ-803]", "measured endpoint": "pEC50", "observed result": 6.74}
{"compound": "O=C(c1cncc(Cl)c1)N1CCC(C(O)(c2ccccc2)c2ccccc2)CC1 [NZ-779]", "measured endpoint": "pEC50", "observed result": 6.15}
{"compound": "O=C(c1cncc(C(F)(F)F)c1)N1CCN(C(c2ccccc2)c2cccnc2)CC1 (centres unmarked) [MKP-1195]", "measured endpoint": "pEC50", "observed result": 5.06}
{"compound": "Cc1cncc(C(=O)N2CCN(C3c4ccccc4C=Cc4ccccc43)CC2)c1 [NZ-784]", "measured endpoint": "pEC50", "observed result": 6.44}

----------
EC50 values, listed per item
System: CoV-2 in Vero cells
test details: CoV-2 Vero antiviral assay
Type: cell-based, SARS-CoV-2
condition set: Severe acute respiratory syndrome coronavirus 2, Vero, read-out: CoV-2 Vero EC50/100
measured endpoint: EC50

{"molecule": "O=C(c1cncc(Br)c1)N1CCN(C(c2ccccc2)c2ccccc2)CC1", "subject of test": "CoV-2 in Vero cells", "observed result": "2.5 µg/mL"}
{"molecule": "Nc1cncc(C(=O)N2CCN(C3c4ccccc4CCc4ccccc43)CC2)c1", "subject of test": "CoV-2 in Vero cells", "observed result": "5 µg/mL"}
{"molecule": "O=C(c1cncc(Br)c1)N1CCC(=C(c2ccccc2)c2ccccc2)CC1", "subject of test": "CoV-2 in Vero cells", "observed result": "20 µg/mL"}
{"molecule": "Cc1cncc(C(=O)N2CCN(C(c3ccccc3)c3cccc(Cl)c3)CC2)c1 (centres unmarked)", "subject of test": "CoV-2 in Vero cells", "observed result": "10 µg/mL"}
{"molecule": "CC(=O)Nc1cncc(C(=O)N2CCN(C3c4ccccc4CCc4ccccc43)CC2)c1", "subject of test": "CoV-2 in Vero cells", "observed result": "20 µg/mL"}
{"molecule": "Cc1cncc(C(=O)N2CCN(C(c3cccc(F)c3)c3cccc(F)c3)CC2)c1", "subject of test": "CoV-2 in Vero cells", "observed result": "2.5 µg/mL"}
{"molecule": "Cc1cncc(C(=O)N2CCN(C(c3ccccc3)c3ccccc3)CC2)c1", "subject of test": "CoV-2 in Vero cells", "observed result": "2.5 µg/mL"}
{"molecule": "Cc1cncc(C(=O)N2CCC(=C(c3ccccc3)c3ccccc3)CC2)c1", "subject of test": "CoV-2 in Vero cells", "observed result": "10 µg/mL"}

----------
subject of test: UniProtKB P0DTD1
test details: biochemical
condition set: Enzyme IC50, Table 2
pIC50: −log10 of the molar value.
Catalogue of pIC50 readings, one per entry.
measured endpoint: pIC50

{"molecule": "Cc1cncc(C(=O)N2CC3CCC(C2)N3C(c2ccccc2)c2ccccc2)c1", "observed result": 7.09}
{"molecule": "O=C(c1cccnc1)N1C2CCC1CN(C(c1ccccc1)c1ccccc1)C2", "observed result": 5.41}
{"molecule": "O=C(c1cncc2cc[nH]c12)N1CC2CCC(C1)N2C(c1cccc(F)c1)c1cccc(F)c1", "observed result": 7.42}
{"molecule": "O=C(c1cncc2cc[nH]c12)N1CC2CCC(C1)N2C(c1ccccc1)c1ccccc1", "observed result": 7.24}
{"molecule": "Cc1cncc(C(=O)N2CC3CCC(C2)N3C(c2ccccc2)c2ccccc2)n1", "observed result": 6.10}
{"molecule": "CNC(=O)c1cccc(C(c2ccccc2)N2C3CCC2CN(C(=O)c2cncc(C)c2)C3)c1 (centres unmarked)", "observed result": 5.86}
{"molecule": "CC(=O)Nc1cncc(C(=O)N2CC3CCC(C2)N3C(c2ccccc2)c2ccccc2)c1", "observed result": 6.19}
{"molecule": "Cc1cnc(F)c(C(=O)N2CC3CCC(C2)N3C(c2ccccc2)c2ccccc2)c1", "observed result": 6.66}
{"molecule": "Cc1cncc(C(=O)N2CC3CCC(C2)N3C(c2cccc(F)c2)c2cccc(F)c2)c1", "observed result": 7.48}
{"molecule": "CC(=O)Nc1cccc(C(c2ccccc2)N2C3CCC2CN(C(=O)c2cncc(C)c2)C3)c1 (centres unmarked)", "observed result": 7.32}
{"molecule": "O=C(c1cncc2nc[nH]c12)N1CC2CCC(C1)N2C(c1ccccc1)c1ccccc1", "observed result": 6.68}
